# Test system: ATS95
# protocol.description: qHTS profiling for inhibitors of Plasmodium falciparum proliferation (AID 504749); further: nearly all actives have a fitted effect of over 60% in size
# conditions.used: P. falciparum in erythrocytes, SYBR Green DNA, 72 h; series mostly up to 12.8 µM
# Protocol: NIH National Institute of Allergy and Infectious Diseases [NIAID] NIH Chemical Genomics Center [NCGC] […] Because mature erythrocytes lack DNA, only Plasmodium-derived DNA is detected. NCGC Assay Protocol Summary: The SYBR Green viability assay was adapted from a method described previously (Plouffe et al., 2008). […] The following morning, fluorescence intensity at 485(14) nm excitation and 535(25) nm emission wavelengths was measured on an EnVision (Perkin Elmer) plate reader. […]
Inconclusive results are not listed. Activity calls are given as the source filed them. The call rests on the fitted dose curve; in most records, active means well fitted inhibition curve with a large enough effect; inconclusive means small, poorly fitted or top-dose-only effect; inactive means flat fitted curve, though single readings scatter.
measured.parameter: outcome

molecule	measured.parameter	result
CN[C@@H](CC(C)C)C(=O)N[C@@H]1C(=O)N[C@H](CC(N)=O)C(=O)N[C@@H]2C(=O)N[C@H]3C(=O)N[C@H](C(=O)N[C@H](C(=O)O)c4cc(O)cc(O)c4-c4cc3ccc4O)[C@H](O)c3ccc(c(Cl)c3)Oc3cc2cc(c3O[C@H]2O[C@@H](CO)[C@@H](O)[C@@H](O)[C@@H]2O[C@@H]2C[C@](C)(N)[C@H](O)[C@H](C)O2)Oc2ccc(cc2Cl)[C@@H]1O	outcome	inactive
CO/N=C(/C(=O)NC1C(=O)N2C(C(=O)O)=C(CSc3nc(=O)c(O)nn3C)CSC12)c1csc(N)n1 (stereo not drawn)	outcome	inactive
CC1(C)S[C@@H]2[C@H](NC(=O)[C@H](C(=O)O)c3ccsc3)C(=O)N2[C@H]1C(=O)O	outcome	inactive

These entries and their values trace back to PubChem BioAssay (NCATS).
